- system: UniProt P08581
value_kind: IC50
Answers without a unit are incomplete; give the number and then its unit.

Qu. // Input: COc1cc2nccc(Nc3ccc4nc(-c5ccc(C(C)(C)C)cc5)[nH]c4c3)c2cc1OC [Compound 12n] . Output its IC50 only.
Ans. 30 nM

Qu. // Input: COc1cc2nccc(Nc3ccc4nc(-c5cccc(Cl)c5)[nH]c4c3)c2cc1OC [Compound 12e] . Output its IC50 only.
Ans. 4800 nM

Qu. // Input: COc1cc2nccc(Nc3ccc4nc(-c5cccc(C)c5)[nH]c4c3)c2cc1OC [Compound 12k] . Output its IC50 only.
Ans. 8500 nM

Qu. // Input: COc1cc2nccc(Nc3ccc4nc(-c5ccc(Cl)cc5)[nH]c4c3)c2cc1OC [Compound 12f] . Output its IC50 only.
Ans. 930 nM

Qu. // Input: COc1cc2nccc(Nc3ccc4nc(-c5ccc(C)cc5)[nH]c4c3)c2cc1OC [Compound 12l] . Output its IC50 only.
Ans. 320 nM

Qu. // Input: COc1cc2nccc(Nc3ccc4nc(-c5ccc(Br)cc5)[nH]c4c3)c2cc1OC [Compound 12g] . Output its IC50 only.
Ans. 5500 nM

Qu. // Input: COc1cc2nccc(Nc3ccc4nc(-c5cccc(I)c5)[nH]c4c3)c2cc1OC [Compound 12i] . Output its IC50 only.
Ans. 540 nM

Qu. // Input: COc1cc2nccc(Nc3ccc4nc(-c5ccc(F)cc5)[nH]c4c3)c2cc1OC [Compound 12c] . Output its IC50 only.
Ans. 110 nM

Qu. // Input: COc1cc2nccc(Nc3ccc4nc(-c5cccc(F)c5)[nH]c4c3)c2cc1OC [Compound 12b] . Output its IC50 only.
Ans. 1200 nM

Qu. // Input: CCc1ccc(-c2nc3ccc(Nc4ccnc5cc(OC)c(OC)cc45)cc3[nH]2)cc1 [Compound 12m] . Output its IC50 only.
Ans. 56 nM

Qu. // Input: COc1cc2nccc(Nc3ccc4nc(-c5ccc(Cl)c(Cl)c5)[nH]c4c3)c2cc1OC [Compound 12r] . Output its IC50 only.
Ans. 5300 nM

---

Answer each item with its documented melting point.

Qu. // Input: COc1cc2nccc(Nc3ccc4nc(-c5cccc(I)c5)[nH]c4c3)c2cc1OC [Compound 12i] . Output its melting point only.
Ans. 201 to 203 °C

Qu. // Input: COc1cc2nccc(Nc3ccc4nc(-c5ccccc5Cl)[nH]c4c3)c2cc1OC [Compound 12d] . Output its melting point only.
Ans. 287 to 290 °C

Qu. // Input: COc1cc2nccc(Nc3ccc4nc(-c5ccc(Cl)c(Cl)c5)[nH]c4c3)c2cc1OC [Compound 12r] . Output its melting point only.
Ans. 336 to 338 °C

Qu. // Input: COc1cc2nccc(Nc3ccc4nc(-c5ccccc5OC)[nH]c4c3)c2cc1OC [Compound 12o] . Output its melting point only.
Ans. 164 to 166 °C

Qu. // Input: COc1cc2nccc(Nc3ccc4nc(-c5cccc(C)c5)[nH]c4c3)c2cc1OC [Compound 12k] . Output its melting point only.
Ans. 339 to 342 °C

Qu. // Input: COc1cc2nccc(Nc3ccc4nc(-c5cccc(Cl)c5)[nH]c4c3)c2cc1OC [Compound 12e] . Output its melting point only.
Ans. 250 to 252 °C

Qu. // Input: COc1cc2nccc(Nc3ccc4nc(-c5ccccc5I)[nH]c4c3)c2cc1OC [Compound 12h] . Output its melting point only.
Ans. 207 to 209 °C

Qu. // Input: COc1cc2nccc(Nc3ccc4nc(-c5ccc(Cl)cc5)[nH]c4c3)c2cc1OC [Compound 12f] . Output its melting point only.
Ans. 330 to 332 °C

Qu. // Input: COc1cc2nccc(Nc3ccc4nc(-c5c(F)cccc5F)[nH]c4c3)c2cc1OC [Compound 12p] . Output its melting point only.
Ans. 208 to 210 °C

Qu. // Input: CCc1ccc(-c2nc3ccc(Nc4ccnc5cc(OC)c(OC)cc45)cc3[nH]2)cc1 [Compound 12m] . Output its melting point only.
Ans. 210 to 212 °C

Qu. // Input: COc1cc2nccc(Nc3ccc4nc(-c5c(Cl)cccc5Cl)[nH]c4c3)c2cc1OC [Compound 12q] . Output its melting point only.
Ans. 254 to 257 °C

Qu. // Input: COc1cc2nccc(Nc3ccc4nc(-c5ccc(F)cc5)[nH]c4c3)c2cc1OC [Compound 12c] . Output its melting point only.
Ans. 312 to 315 °C

---

- system: c-Met kinase (Homo sapiens)
- Construct: purchased Carna
- Sequence (P08581 25-1390): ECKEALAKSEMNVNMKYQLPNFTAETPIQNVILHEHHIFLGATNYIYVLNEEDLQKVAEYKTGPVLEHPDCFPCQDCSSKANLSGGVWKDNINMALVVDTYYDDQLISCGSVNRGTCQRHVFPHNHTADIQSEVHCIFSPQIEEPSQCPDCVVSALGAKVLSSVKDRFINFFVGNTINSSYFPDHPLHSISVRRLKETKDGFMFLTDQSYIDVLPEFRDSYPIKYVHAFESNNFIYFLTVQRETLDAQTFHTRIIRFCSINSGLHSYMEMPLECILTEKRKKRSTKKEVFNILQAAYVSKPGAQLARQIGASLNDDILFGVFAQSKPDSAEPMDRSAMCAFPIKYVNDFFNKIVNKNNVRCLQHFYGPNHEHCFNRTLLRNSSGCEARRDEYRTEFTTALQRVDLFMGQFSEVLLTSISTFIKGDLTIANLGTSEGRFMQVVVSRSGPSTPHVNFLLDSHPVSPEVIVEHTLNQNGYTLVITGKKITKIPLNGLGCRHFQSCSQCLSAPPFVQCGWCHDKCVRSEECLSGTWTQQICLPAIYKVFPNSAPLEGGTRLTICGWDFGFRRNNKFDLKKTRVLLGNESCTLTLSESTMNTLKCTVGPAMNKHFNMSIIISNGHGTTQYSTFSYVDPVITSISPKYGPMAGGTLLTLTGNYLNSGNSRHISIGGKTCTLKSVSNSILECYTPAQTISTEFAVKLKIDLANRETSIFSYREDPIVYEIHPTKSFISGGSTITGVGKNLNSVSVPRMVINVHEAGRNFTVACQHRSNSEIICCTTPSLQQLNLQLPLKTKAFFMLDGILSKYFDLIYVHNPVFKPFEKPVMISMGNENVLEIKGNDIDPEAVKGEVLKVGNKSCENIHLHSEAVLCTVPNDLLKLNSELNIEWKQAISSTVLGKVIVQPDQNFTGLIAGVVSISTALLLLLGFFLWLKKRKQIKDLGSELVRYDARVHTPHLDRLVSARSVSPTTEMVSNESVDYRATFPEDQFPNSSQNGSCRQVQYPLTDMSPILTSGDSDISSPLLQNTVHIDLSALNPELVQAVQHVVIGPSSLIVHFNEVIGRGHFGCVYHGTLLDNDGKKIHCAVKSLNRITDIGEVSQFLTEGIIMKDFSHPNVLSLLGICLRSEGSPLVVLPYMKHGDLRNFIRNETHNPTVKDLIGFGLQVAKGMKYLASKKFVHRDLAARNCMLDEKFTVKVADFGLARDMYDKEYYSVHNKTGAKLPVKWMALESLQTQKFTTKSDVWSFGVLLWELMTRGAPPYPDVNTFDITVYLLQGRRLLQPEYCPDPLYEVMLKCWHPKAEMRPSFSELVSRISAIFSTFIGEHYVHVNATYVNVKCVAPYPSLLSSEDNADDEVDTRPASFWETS
- run_description: c-Met inhibition assay (Caliper motility shift assay)
- Format: biochemical
- run_parameters: 10 μΜ compound; n = 3 (mean ± SD)
value_kind: c-Met inhibition % Inhibition (10 μΜ) (%)
Write the number in % without appending the unit.

Qu. // Input: COc1cc2nccc(Nc3ccc4nc(-c5ccccc5OC)[nH]c4c3)c2cc1OC [Compound 12o] . Output its c-Met inhibition % Inhibition (10 μΜ) only.
Ans. 24.2

Qu. // Input: COc1cc2nccc(Nc3ccc4nc(-c5ccc(F)cc5)[nH]c4c3)c2cc1OC [Compound 12c] . Output its c-Met inhibition % Inhibition (10 μΜ) only.
Ans. 89.2

Qu. // Input: COc1cc2nccc(Nc3ccc4nc(-c5ccc(C(C)(C)C)cc5)[nH]c4c3)c2cc1OC [Compound 12n] . Output its c-Met inhibition % Inhibition (10 μΜ) only.
Ans. 97.1

Qu. // Input: COc1cc2nccc(Nc3ccc4nc(-c5ccccc5C)[nH]c4c3)c2cc1OC [Compound 12j] . Output its c-Met inhibition % Inhibition (10 μΜ) only.
Ans. 23.0

Qu. // Input: COc1cc2nccc(Nc3ccc4nc(-c5ccc(Cl)c(Cl)c5)[nH]c4c3)c2cc1OC [Compound 12r] . Output its c-Met inhibition % Inhibition (10 μΜ) only.
Ans. 55.4

Qu. // Input: COc1cc2nccc(Nc3ccc4nc(-c5cccc(I)c5)[nH]c4c3)c2cc1OC [Compound 12i] . Output its c-Met inhibition % Inhibition (10 μΜ) only.
Ans. 66.0

Qu. // Input: COc1cc2nccc(Nc3ccc4nc(-c5ccccc5Cl)[nH]c4c3)c2cc1OC [Compound 12d] . Output its c-Met inhibition % Inhibition (10 μΜ) only.
Ans. 17.4

Qu. // Input: COc1cc2nccc(Nc3ccc4nc(-c5ccccc5F)[nH]c4c3)c2cc1OC [Compound 12a] . Output its c-Met inhibition % Inhibition (10 μΜ) only.
Ans. 16.9

Qu. // Input: COc1cc2nccc(Nc3ccc4nc(-c5cccc(Cl)c5)[nH]c4c3)c2cc1OC [Compound 12e] . Output its c-Met inhibition % Inhibition (10 μΜ) only.
Ans. 54.5

Qu. // Input: COc1cc2nccc(Nc3ccc4nc(-c5ccc(Cl)cc5)[nH]c4c3)c2cc1OC [Compound 12f] . Output its c-Met inhibition % Inhibition (10 μΜ) only.
Ans. 63.8

Values were extracted from paper PMC6237173.
